Reported EC50 values follow for various compounds
Target: UniProt:Q92633
Experiment: LPAR1 intracellular calcium mobilization assay (antagonist mode, FLIPR)
Type: cell-based
Conditions: CHO-K1 EDG2 cells expressing human LPAR1, LPA 18:2 at EC80 (100 nM), test compound 0.5 nM to 10 μM
MEASURE_NAME: EC50

> print(dat)
                                   compound  measure.name  reported
1  C[C@@H](OC(=O)Nc1c(-c2ccc(NC(=O)CC#N)cn2)nnn1C)c1cccnc1Cl          EC50    264 nM
2  C[C@@H](OC(=O)Nc1c(-c2ccc(NC(=O)c3ccnc(N)c3)cn2)nnn1C)c1cc(F)cnc1F          EC50   1110 nM
3  C[C@@H](OC(=O)Nc1c(-c2ccc(NC(=O)C3(N)CC(F)(F)C3)cn2)nnn1C)c1cccnc1Cl          EC50    454 nM
4  CC(OC(=O)Nc1c(-c2ccc(NC(=O)C(F)(F)F)cn2)nnn1C)c1cc(Br)cnc1Cl (stereo not shown)          EC50    148 nM

---

Reported EC50 values follow for various compounds
Target: human LPAR1 (Homo sapiens (Human))
Assay: LPAR1 intracellular calcium mobilization assay (antagonist mode, FLIPR)
Format: cell-based
Conditions: CHO-K1 EDG2 cells expressing human LPAR1, LPA 18:2 at EC80 (100 nM), test compound 0.5 nM to 10 μM
MEASURE_NAME: EC50 (nM)

> print(dat)
                                   compound  reported
1  C[C@@H](OC(=O)Nc1c(-c2ccc(NC(=O)C3CC(F)(F)C3)cn2)nnn1C)c1cccnc1F       140
2  C[C@@H](OC(=O)Nc1c(-c2cnc(NC(=O)c3cnc(C(F)F)nc3)cn2)nnn1C)c1cccnc1F       255
3  C[C@@H](OC(=O)Nc1c(-c2ccc(NC(=O)[C@@H]3C[C@H]3CF)cn2)nnn1C)c1cc(F)cnc1F (mixture of isomers)      21.1
4  C[C@@H](OC(=O)Nc1c(-c2ccc(NC(=O)C34CCC(F)(CC3)CC4)cn2)nnn1C)c1cccnc1Cl       504
5  C[C@@H](OC(=O)Nc1c(-c2ccc(NC(=O)[C@H]3C[C@@H]3c3ccccn3)cn2)nnn1C)c1cc(F)cnc1F       749
6  C[C@@H](OC(=O)Nc1c(-c2ccc(NC(=O)CC3OCCO3)cn2)nnn1C)c1cccnc1Cl      1030
7  CCC(=O)Nc1ccc(-c2nnn(C)c2NC(=O)O[C@H](C)c2cccnc2Cl)nc1      1020

---

Target: human LPAR1 (Homo sapiens (Human), UniProt Q92633)
Sequence (Q92633 whole entry): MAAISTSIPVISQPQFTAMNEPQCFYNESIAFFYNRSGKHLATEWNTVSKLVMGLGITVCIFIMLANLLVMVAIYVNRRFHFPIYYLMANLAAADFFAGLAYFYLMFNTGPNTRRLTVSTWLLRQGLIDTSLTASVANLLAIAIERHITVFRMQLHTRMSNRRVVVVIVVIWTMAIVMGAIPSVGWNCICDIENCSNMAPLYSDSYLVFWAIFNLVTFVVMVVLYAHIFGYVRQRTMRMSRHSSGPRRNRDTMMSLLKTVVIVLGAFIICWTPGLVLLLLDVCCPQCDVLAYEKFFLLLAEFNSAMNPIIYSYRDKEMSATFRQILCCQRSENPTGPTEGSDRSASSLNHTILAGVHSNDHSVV
Assay: LPAR1 intracellular calcium mobilization assay (antagonist mode, FLIPR)
Type: cell-based
Conditions: CHO-K1 EDG2 cells expressing human LPAR1, LPA 18:2 at EC80 (100 nM), test compound 0.5 nM to 10 μM
MEASURE_NAME: log10 of EC50 (log10 of the value in nM)

> print(dat)
                                    compound                             tested.system  reported
 1  C[C@@H](OC(=O)Nc1c(-c2ccc(NC(=O)[C@H]3CCC(=O)N3)cn2)nnn1C)c1cccnc1Cl  human LPAR1 (Homo sapiens (Human), UniProt Q92633)      3.60
 2  C[C@@H](OC(=O)Nc1c(-c2ccc(NC(=O)C3CC4(CC4)C3)cn2)nnn1C)c1cccnc1Cl  human LPAR1 (Homo sapiens (Human), UniProt Q92633)      0.93
 3  C[C@@H](OC(=O)Nc1c(-c2ccc(NC(=O)C3(C(F)F)COC3)cn2)nnn1C)c1cc(F)cnc1F  human LPAR1 (Homo sapiens (Human), UniProt Q92633)      2.55
 4  C[C@@H](OC(=O)Nc1c(-c2ccc(NC(=O)C3(C)CC(F)(F)C3)cn2)nnn1C)c1cccnc1F  human LPAR1 (Homo sapiens (Human), UniProt Q92633)      2.20
 5  C[C@@H](OC(=O)Nc1c(-c2ccc(NC(=O)c3ccc(Cl)nn3)cn2)nnn1C)c1cc(F)cnc1F  human LPAR1 (Homo sapiens (Human), UniProt Q92633)      2.44
 6  C[C@@H](OC(=O)Nc1c(-c2ccc(NC(=O)C3(C)CS(=O)(=O)C3)cn2)nnn1C)c1cc(F)cnc1F  human LPAR1 (Homo sapiens (Human), UniProt Q92633)      2.61
 7  CCCC(=O)Nc1ccc(-c2nnn(C)c2NC(=O)O[C@H](C)c2cccnc2Cl)nc1  human LPAR1 (Homo sapiens (Human), UniProt Q92633)      2.71
 8  COC(=O)Nc1ccc(-c2nnn(C)c2NC(=O)O[C@H](C)c2cccnc2Cl)nc1  human LPAR1 (Homo sapiens (Human), UniProt Q92633)      1.47
 9  CCOC(=O)Nc1ccc(-c2nnn(C)c2NC(=O)O[C@H](C)c2cccnc2Cl)nc1  human LPAR1 (Homo sapiens (Human), UniProt Q92633)      1.60
10  C[C@@H](OC(=O)Nc1c(-c2ccc(NC(=O)C3CC3C#N)cn2)nnn1C)c1cccnc1Cl (stereo partly drawn)  human LPAR1 (Homo sapiens (Human), UniProt Q92633)      2.43
11  C[C@@H](OC(=O)Nc1c(-c2ccc(NC(=O)C3(F)CC3)cn2)nnn1C)c1cccnc1Cl  human LPAR1 (Homo sapiens (Human), UniProt Q92633)      2.15
12  C[C@@H](OC(=O)Nc1c(-c2ncc(NC(=O)C3(C#N)CC3)cn2)nnn1C)c1cccnc1Cl  human LPAR1 (Homo sapiens (Human), UniProt Q92633)      2.98
13  C[C@@H](OC(=O)Nc1c(-c2ccc(NC(=O)[C@@H]3CCC3(F)F)cn2)nnn1C)c1cccnc1Cl  human LPAR1 (Homo sapiens (Human), UniProt Q92633)      1.87
14  C[C@@H](OC(=O)Nc1c(-c2ccc(NC(=O)[C@@]3(C#N)C[C@@H]3C(F)F)cn2)nnn1C)c1cc(F)cnc1F  human LPAR1 (Homo sapiens (Human), UniProt Q92633)      2.01
15  C[C@@H](OC(=O)Nc1c(-c2ccc(NC(=O)[C@H]3[C@@H]4CS(=O)(=O)C[C@@H]43)cn2)nnn1C)c1cc(F)cnc1F (racemic)  human LPAR1 (Homo sapiens (Human), UniProt Q92633)      2.94
